Molecular target: 5-lipoxygenase (Rattus norvegicus)
Construct: 20,000xg supernatant from 6x10⁴ homogenized RBL-1 cells; endogenous in cells
Sequence (P12527 1-673): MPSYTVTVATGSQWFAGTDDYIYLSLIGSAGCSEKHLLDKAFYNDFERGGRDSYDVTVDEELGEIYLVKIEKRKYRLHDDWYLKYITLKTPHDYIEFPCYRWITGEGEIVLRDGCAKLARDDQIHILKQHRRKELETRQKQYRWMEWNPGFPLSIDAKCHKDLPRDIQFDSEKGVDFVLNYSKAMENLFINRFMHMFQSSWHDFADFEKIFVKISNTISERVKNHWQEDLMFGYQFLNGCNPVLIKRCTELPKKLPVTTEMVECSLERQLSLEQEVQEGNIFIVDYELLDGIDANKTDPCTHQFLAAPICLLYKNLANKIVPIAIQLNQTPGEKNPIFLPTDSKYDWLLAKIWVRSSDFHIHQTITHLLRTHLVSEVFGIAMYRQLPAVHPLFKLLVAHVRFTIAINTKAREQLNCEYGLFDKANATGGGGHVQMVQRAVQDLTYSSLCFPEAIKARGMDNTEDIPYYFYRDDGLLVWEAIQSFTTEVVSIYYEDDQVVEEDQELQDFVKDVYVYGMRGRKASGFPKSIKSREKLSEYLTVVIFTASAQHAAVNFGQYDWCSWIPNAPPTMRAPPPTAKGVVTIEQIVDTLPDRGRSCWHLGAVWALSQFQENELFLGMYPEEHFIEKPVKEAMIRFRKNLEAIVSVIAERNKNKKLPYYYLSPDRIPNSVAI
Test: Lipoxygenase IC50 determination (5-lipoxygenase inhibitory activity, RBL-1 cell supernatant)
Conditions: 20,000xg supernatant from homogenized RBL-1 cells, radiolabelled arachidonic acid, 2% DMSO vehicle
Items are presented alongside their recorded pIC50.
Scale: pIC50 equals -log10([C]), with [C] in mol/L.

Previously resolved entries follow.
compound	pIC50
CC(c1cc2ccccc2s1)N(O)C(N)=S (stereo not shown)	6.72
CC(c1cc2ccccc2s1)N(O)C(=O)NO (stereo not shown)	6.29
CC(c1cc2ccccc2o1)N(O)C(N)=O (stereo not shown)	5.57

Given the compound `CCNC(=O)N(O)Cc1cc2ccccc2s1` , what is its reported pIC50?
6.00

Also CNC(=O)N(O)C(C)c1cn(C)c2ccccc12 (stereo not shown) , if possible.
5.43

Also NC(=O)N(O)Cc1cc2ccccc2o1 [Example 49, N-hydroxy-N-benzo[b]fur-2-ylmethyl urea] , if possible.
5.09

Also CCNC(=O)N(O)C(C)c1cc2ccccc2s1 (stereo not shown) , if possible.
5.74

Also `NC(=O)N(O)CC=Cc1cc2ccccc2s1` , if possible.
6.46

Also CC(c1cc2ccccc2s1)N(O)C=O (stereo not shown) , if possible.
5.52

Also `CNC(=O)N(O)Cc1cc2ccccc2o1` , if possible.
5.64

Also Cc1c(C(C)N(O)C(N)=O)sc2ccccc12 (stereo not shown) , if possible.
6.27

Also CC(c1cn(C)c2ccccc12)N(O)C(N)=O (stereo not shown) , if possible.
5.55

Also COc1cccc2cc(C(C)N(O)C(N)=O)oc12 (stereo not shown) , if possible.
5.72

---

Target: 5-lipoxygenase (Rattus norvegicus, UniProt P12527)
Construct: 20,000xg supernatant from 6x10⁴ homogenized RBL-1 cells; endogenous in cells; host or cells: RBL-1 cells (homogenate, 20,000xg supernatant)
Assay: Lipoxygenase IC50 determination (5-lipoxygenase inhibitory activity, RBL-1 cell supernatant)
Type: biochemical
Conditions: 20,000xg supernatant from homogenized RBL-1 cells, radiolabelled arachidonic acid, 2% DMSO vehicle
outcome-measure: IC50 (nM)
Report only the number, with the unit nM understood.

Previously resolved entries follow.
compound	target-or-test-system	IC50 / nM
CC(=O)N(O)C(C)C1=Cc2ccccc2S1(=O)=O (stereo not shown) [Example 12]	5-lipoxygenase (Rattus norvegicus, UniProt P12527)	21000
CC(c1cc2ccc(OCc3ccccc3)cc2o1)N(O)C(N)=O (stereo not shown) [Example 51]	5-lipoxygenase (Rattus norvegicus, UniProt P12527)	250
CN(C)C(=O)N(O)Cc1cc2ccccc2s1 [Example 7]	5-lipoxygenase (Rattus norvegicus, UniProt P12527)	1100

Now, please, on to the next compound.
Given the compound CC(=O)N(O)CC=Cc1cc2ccccc2s1 [Example 31] , what is its reported IC50?
270

---

Biological target: 5-lipoxygenase (Rattus norvegicus, UniProt P12527)
Construct: 20,000xg supernatant from 6x10⁴ homogenized RBL-1 cells; endogenous in cells; host or cells: RBL-1 cells (homogenate, 20,000xg supernatant)
Sequence (P12527 1-673): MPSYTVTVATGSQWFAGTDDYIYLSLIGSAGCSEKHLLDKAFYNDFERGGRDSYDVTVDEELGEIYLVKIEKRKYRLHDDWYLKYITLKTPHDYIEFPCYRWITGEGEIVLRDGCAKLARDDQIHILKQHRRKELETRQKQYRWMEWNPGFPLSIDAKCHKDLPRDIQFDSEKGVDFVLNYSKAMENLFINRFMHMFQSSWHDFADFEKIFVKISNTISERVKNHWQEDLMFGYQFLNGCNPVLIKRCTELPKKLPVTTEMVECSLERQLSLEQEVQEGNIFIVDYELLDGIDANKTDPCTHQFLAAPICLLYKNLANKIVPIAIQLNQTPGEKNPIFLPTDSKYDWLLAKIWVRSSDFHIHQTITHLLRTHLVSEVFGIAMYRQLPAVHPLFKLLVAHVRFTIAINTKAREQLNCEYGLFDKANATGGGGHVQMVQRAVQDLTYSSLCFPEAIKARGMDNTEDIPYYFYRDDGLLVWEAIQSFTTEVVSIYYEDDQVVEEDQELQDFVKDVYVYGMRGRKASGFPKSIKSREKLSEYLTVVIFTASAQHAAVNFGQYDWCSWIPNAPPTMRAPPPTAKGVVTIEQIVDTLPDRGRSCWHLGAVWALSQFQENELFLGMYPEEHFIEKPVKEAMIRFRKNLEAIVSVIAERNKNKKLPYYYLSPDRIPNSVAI
Experiment: Lipoxygenase IC50 determination (5-lipoxygenase inhibitory activity, RBL-1 cell supernatant)
Assay type: biochemical
Conditions: 20,000xg supernatant from homogenized RBL-1 cells, radiolabelled arachidonic acid, 2% DMSO vehicle
Mark Met only for IC50 values smaller than 1000 nM; exact matches and larger values are Not met.

Examples from the recorded data:
compound	category-label
CC(C)CC(c1cc2ccccc2s1)N(O)C(N)=O (stereo not drawn)	Met
CC(C1Cc2ccccc2O1)N(O)C(N)=O (stereo not drawn)	Not met
CC(C)C(=O)N(O)C(C)c1cc2ccccc2s1 (stereo not drawn)	Met
CNC(=O)N(O)C(C)c1cc2ccc(OCc3ccccc3)cc2o1 (stereo not drawn)	Met
CC(=O)N(O)C(C)c1csc2ccccc12 (stereo not drawn)	Not met
CNC(=O)N(O)Cc1cc2ccccc2s1	Not met
CC(c1cc2ccccc2n1S(C)(=O)=O)N(O)C(N)=O (stereo not drawn)	Not met

Next compound, please.
Dear reviewer, please state whether CC(c1cc2ccccc2[nH]1)N(O)C(N)=O (stereo not drawn) has IC50 strictly beneath 1000 nM.
Not met

Origin of values: patent EP0279263B1
